# TARGET_OR_SYSTEM: Relipidated TF (Tissue Factor) (UniProt P13726 33-295, limits assumed)
# ASSAY_TEXT: cell-based or functional assay
READOUT_LABEL: % Peak IIa, Ab 50 nM (%)

- BINDER: "39A (antibody, human IgG1, V domains shown) VH: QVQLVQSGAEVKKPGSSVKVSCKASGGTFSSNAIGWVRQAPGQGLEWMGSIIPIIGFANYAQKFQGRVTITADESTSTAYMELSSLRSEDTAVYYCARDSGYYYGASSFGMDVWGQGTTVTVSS VL: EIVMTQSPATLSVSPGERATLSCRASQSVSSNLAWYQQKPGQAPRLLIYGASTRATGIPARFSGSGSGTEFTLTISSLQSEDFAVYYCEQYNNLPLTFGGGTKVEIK"
  READOUT_LABEL: "% Peak IIa, Ab 50 nM"
  UNIT_OF_MEASURE: "%"
  OBS_VALUE: 11

meta.source: patent US20240166765A1
